# ED50 per entry
Test system: mice
Protocol: Haffner test ("Tail clip test") in mice
Type: in vivo, mouse (male CD mice)
Conditions: Mus musculus, iv, 0.5 h; i.v., 30 min.; read-out: ED50 (Haffner test in mice)
# do not omit the unit; it follows the number

// solved cases for ED50 follow
Consider the molecule shown here: CN1CC[C@]23c4c5ccc(O)c4O[C@H]2[C@@H](OC(=O)C(C)(O)C(F)(F)F)C=C[C@H]3[C@H]1C5 (stereo partly shown) [Example 11] What is its recorded ED50?
0.007 µmol/kg

Again, but for CN1CC[C@]23c4c5ccc(O)c4O[C@H]2[C@@H](O)CC[C@H]3[C@H]1C5 [7,8-Dihydromorphine.AcOH, reference compound]
0.023 µmol/kg

And CN1CC[C@]23c4c5ccc(O)c4O[C@H]2[C@@H](OCCCCC#N)C=C[C@H]3[C@H]1C5 [Example 27] ?
0.0073 µmol/kg

CN1CC[C@]23c4c5ccc(O)c4O[C@H]2[C@@H](OCCCCOC(=O)C(C)(C)C)C=C[C@H]3[C@H]1C5 [Example 6] , same question.
0.0026 µmol/kg

What about this molecule? CN1CC[C@]23c4c5ccc(O)c4O[C@H]2[C@@H](OCCCCOC(=O)c2ccccc2)C=C[C@H]3[C@H]1C5 [Example 4]
0.0031 µmol/kg

Others:
// lookup ED50 for CCCC(O)CO[C@H]1C=C[C@H]2[C@H]3Cc4ccc(O)c5c4[C@@]2(CCN3C)[C@H]1O5 (stereo partly shown) [Example 33]
0.0046 µmol/kg

Check CCOC(=O)CCCCCO[C@H]1C=C[C@H]2[C@H]3Cc4ccc(O)c5c4[C@@]2(CCN3C)[C@H]1O5 [Example 22] too.
0.0037 µmol/kg
